Value source: patent US12435087B2

biological target: DCN1 (DCUND1) protein PONY domain (Homo sapiens (Human), UniProt Q96GG9); test: TR-FRET assay (binding to DCN-1, displacement of FAM-labeled probe); settings: 24 hr after treatment with compound; read-out: TR FRET IC50 24 hr
Sequence (Q96GG9 60-248): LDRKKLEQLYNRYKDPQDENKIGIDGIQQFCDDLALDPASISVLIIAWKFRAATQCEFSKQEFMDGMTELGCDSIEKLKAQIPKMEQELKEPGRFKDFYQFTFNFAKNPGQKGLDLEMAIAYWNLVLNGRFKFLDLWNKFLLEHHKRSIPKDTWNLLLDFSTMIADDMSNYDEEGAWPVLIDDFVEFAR
METRIC_NAME: IC50

A selection of reference data follows.
COMPOUND | ASSAYED_SYSTEM | METRIC_NAME | ASSAY_VALUE
CCN1C(=O)[C@H](NC(=O)c2cccc(C(F)(F)F)c2)[C@@H](c2cccc(CNC(=O)/C(C)=C/C(=O)OC)c2)c2cnn(-c3ccccc3)c21 | DCN1 (DCUND1) protein PONY domain (Homo sapiens (Human), UniProt Q96GG9) | IC50 | 1 to 3 µM
C=C(CN1CCOCC1)C(=O)NCc1cccc([C@@H]2c3cnn(-c4ccccc4)c3N(CC)C(=O)[C@H]2NC(=O)c2nccc(C(F)(F)F)n2)c1 | DCN1 (DCUND1) protein PONY domain (Homo sapiens (Human), UniProt Q96GG9) | IC50 | ≤ 0.2 µM
CCN1C(=O)[C@@H](NC(=O)c2cccc(C(F)(F)F)c2)[C@H](c2cccc(CNC(=O)C3=CCCN(C)C3)c2)c2cnn(-c3ccccc3)c21 | DCN1 (DCUND1) protein PONY domain (Homo sapiens (Human), UniProt Q96GG9) | IC50 | 1 to 3 µM

Quick batch: IC50 for everything below.
1. CCN1C(=O)[C@H](NC(=O)c2cccc(C(F)(F)F)c2)[C@@H](c2cccc(NC(=O)C34CC3C4)c2)c2c(C)nn(-c3ccccc3)c21 (mixture of isomers)
2. C=C(CN1CCC1)C(=O)NCc1cccc([C@@H]2c3cnn(-c4ccccc4)c3N(CC)C(=O)[C@H]2NC(=O)c2cccc(C(F)(F)F)c2)c1

Data returned:
1: 1 to 3 µM; 2: ≤ 0.2 µM

###

molecular target: DCN1 protein (Homo sapiens (Human), UniProt Q96GG9); assay: Intact protein MS analysis with the RapidFire-TOF system (covalent adduct formation); format: binding; conditions: 400 nM DCN1, incubated at room temperature for 3 hours
Sequence (Q96GG9 whole entry): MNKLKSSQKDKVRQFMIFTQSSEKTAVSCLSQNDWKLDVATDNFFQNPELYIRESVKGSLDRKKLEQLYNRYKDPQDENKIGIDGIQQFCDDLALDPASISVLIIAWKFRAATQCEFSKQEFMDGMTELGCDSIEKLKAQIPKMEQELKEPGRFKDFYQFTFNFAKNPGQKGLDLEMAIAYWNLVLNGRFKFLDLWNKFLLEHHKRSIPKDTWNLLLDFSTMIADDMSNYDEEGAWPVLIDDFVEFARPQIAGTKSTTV
Could you please report measured Emax for the items listed next?

A selection of reference data follows.
COMPOUND | ASSAYED_SYSTEM | METRIC_NAME | ASSAY_VALUE
CCN1C(=O)[C@@H](NC(=O)c2cccc(C(F)(F)F)c2)[C@@H](c2cccc(NC(=O)COc3c(F)c(F)cc(F)c3F)c2)c2c(C)nn(-c3ccccc3)c21 (racemic) | DCN1 protein (Homo sapiens (Human), UniProt Q96GG9) | Emax | 0 to 30%
CCN1C(=O)[C@@H](NC(=O)c2cccc(C(F)(F)F)c2)[C@H](c2cccc(NC(=O)C3=C(C(=O)OC)CC3)c2)c2c(C)nn(-c3ccccc3)c21 | DCN1 protein (Homo sapiens (Human), UniProt Q96GG9) | Emax | 80 to 100%
C=C(CN1CCOCC1)C(=O)NCc1cccc([C@@H]2c3cnn(-c4ccccc4)c3N(CC)C(=O)[C@H]2NC(=O)c2ccn(C(F)(F)F)n2)c1 | DCN1 protein (Homo sapiens (Human), UniProt Q96GG9) | Emax | 80 to 100%
CCN1C(=O)[C@H](NC(=O)c2cccc(C(F)(F)F)c2)[C@@H](c2cccc(NC(=O)/C(C#N)=C/C(C)(C)C)c2)c2c(C)nn(-c3ccccc3)c21 (racemic) | DCN1 protein (Homo sapiens (Human), UniProt Q96GG9) | Emax | 80 to 100%

Data request: Respond only with Emax recorded for CCN1C(=O)[C@H](NC(=O)c2cccc(C(F)(F)F)c2)[C@@H](c2ccccc2NC(=O)/C=C/C(=O)OC)c2cnn(-c3ccccc3)c21 (racemic)
Data returned: 80 to 100%

###

biological target: DCN1 (DCUND1) protein PONY domain (Homo sapiens (Human), UniProt Q96GG9); test: TR-FRET assay (binding to DCN-1, displacement of FAM-labeled probe); details: TR FRET IC50 1 hr (nM), 1 hr after treatment with compound
METRIC_NAME: IC50

A selection of reference data follows.
COMPOUND | ASSAYED_SYSTEM | IC50
CCN1C(=O)[C@@H](NC(=O)c2cccc(C(F)(F)F)c2)[C@H](c2cccc(CNC(=O)/C(C)=C/C(=O)OC)c2)c2cnn(-c3ccccc3)c21 | DCN1 (DCUND1) protein PONY domain (Homo sapiens (Human), UniProt Q96GG9) | 1000 to 3000 nM
CCN1C(=O)[C@@H](NC(=O)c2cccc(C(F)(F)F)c2)[C@H](c2ccccc2CNC(=O)C(C)Cl)c2cnn(-c3ccccc3)c21 (mixture of isomers) | DCN1 (DCUND1) protein PONY domain (Homo sapiens (Human), UniProt Q96GG9) | 1000 to 3000 nM
C=C(F)C(=O)Nc1cccc([C@H]2c3c(C)nn(-c4ccccc4)c3N(CC)C(=O)[C@@H]2NC(=O)c2cccc(C(F)(F)F)c2)c1 (racemic) | DCN1 (DCUND1) protein PONY domain (Homo sapiens (Human), UniProt Q96GG9) | > 3000 nM

Quick batch: IC50 for everything below.
1. CCN1C(=O)[C@@H](NC(=O)c2ccn(C(F)(F)F)n2)[C@H](c2cccc(NC(=O)C3=CCN(C)C3)c2)c2c(C)nn(-c3ccccc3)c21
2. CCN1C(=O)[C@@H](NC(=O)c2nccc(C(F)(F)F)n2)[C@H](c2cccc(NC(=O)/C=C/C(=O)N(C)C)c2)c2c(C)nn(-c3ccccc3)c21

Data returned:
["200 to 1000 nM", "1000 to 3000 nM"]

Quick batch: IC50 for everything below.
1. C=C(CN1CC2(COC2)C1)C(=O)NCc1cccc([C@H]2c3cnn(-c4ccccc4)c3N(CC)C(=O)[C@H]2NC(=O)c2cccc(C(F)(F)F)c2)c1
2. C/C=C(\CN1CCC1)C(=O)NCc1cccc([C@@H]2c3cnn(-c4ccccc4)c3N(CC)C(=O)[C@H]2NC(=O)c2cccc(C(F)(F)F)c2)c1
3. CCN1C(=O)[C@H](NC(=O)c2cccc(C(F)(F)F)c2)[C@@H](c2cccc(CNC(=O)/C(C)=C/C(=O)OC)c2)c2cnn(-c3ccccc3)c21
4. CCN1C(=O)[C@H](NC(=O)c2cccc(C(F)(F)F)c2)[C@@H](c2cccc(NC(=O)C3CCC3)c2)c2c(C)nn(-c3ccccc3)c21 (racemic)
5. CCC(=O)NCc1cccc([C@@H]2c3cnn(-c4ccccc4)c3N(CC)C(=O)[C@H]2NC(=O)c2ccn(C(F)(F)F)n2)c1
6. CCN1C(=O)[C@@H](NC(=O)c2cccc(C(F)(F)F)c2)[C@H](c2cccc(CN(C)C/C=C/C(=O)N(C)C)c2)c2cnn(-c3ccccc3)c21
7. C/C=C(\CN1CC2CC(C1)O2)C(=O)Nc1cccc([C@@H]2c3cnn(-c4ccccc4)c3N(CC)C(=O)[C@H]2NC(=O)c2nccc(C(F)(F)F)n2)c1
8. C=C(CN1CCOCC1)C(=O)NCc1cccc([C@@H]2c3cnn(-c4ccccc4)c3N(CC)C(=O)[C@H]2NC(=O)c2ccn(CC)n2)c1

Data returned:
1: 1000 to 3000 nM; 2: 200 to 1000 nM; 3: 1000 to 3000 nM; 4: 1000 to 3000 nM; 5: 1000 to 3000 nM; 6: 1000 to 3000 nM; 7: 200 to 1000 nM; 8: 200 to 1000 nM

Quick batch: IC50 for everything below.
1. CCN1C(=O)[C@@H](NC(=O)c2nccc(C(F)(F)F)n2)[C@H](c2cccc(NC(=O)C3=CCN(C)C3)n2)c2cnn(-c3ccccc3)c21 (racemic)
2. C=C(CC(=O)OC)C(=O)NCc1cccc([C@H]2c3cnn(-c4ccccc4)c3N(CC)C(=O)[C@@H]2NC(=O)c2cccc(C(F)(F)F)c2)c1
3. CCN1C(=O)[C@H](NC(=O)c2cccc(C(F)(F)F)c2)[C@@H](c2cccc(N(C)C(=O)/C=C/C(F)(F)F)c2)c2cnn(-c3ccccc3)c21 (racemic)
4. C=C(C)C(=O)Nc1cccc([C@H]2c3c(C)nn(-c4ccccc4)c3N(CC)C(=O)[C@H]2NC(=O)c2cccc(C(F)(F)F)c2)c1 (racemic)
5. C=C(C(=O)NCc1cccc([C@@H]2c3cnn(-c4ccccc4)c3N(CC)C(=O)[C@H]2NC(=O)c2ccn(C(F)(F)F)n2)c1)C(C)N1CCC12COC2 (stereo partly shown)
6. CCN1C(=O)[C@@H](NC(=O)c2cccc(C(F)(F)F)c2)[C@H](c2ccccc2CNC(=O)/C=C/C(=O)OC)c2cnn(-c3ccccc3)c21 (racemic)
7. C/C=C(\CN1CCN(C2COC2)CC1)C(=O)N(C)c1cccc([C@@H]2c3cnn(-c4ccccc4)c3N(CC)C(=O)[C@H]2NC(=O)c2csc(C(F)(F)F)n2)c1

Data returned:
["200 to 1000 nM", "1000 to 3000 nM", "1000 to 3000 nM", "> 3000 nM", "200 to 1000 nM", "1000 to 3000 nM", "1000 to 3000 nM"]

Quick batch: IC50 for everything below.
1. CCN1C(=O)[C@H](NC(=O)c2cccc(C(F)(F)F)c2)[C@@H](c2cccc(NC(=O)C3=CCC3)c2)c2c(C)nn(-c3ccccc3)c21 (racemic)
2. CCN1C(=O)[C@@H](NC(=O)c2cccc(C(F)(F)F)c2)[C@H](c2cccc(CNC(=O)/C=C/C(=O)OC)c2)c2cnn(-c3ccccc3)c21 (racemic)

Data returned:
1. 1000 to 3000 nM
2. 1000 to 3000 nM
